Please go through the items and note down their MIC.
test system: Penicillium expansum EPS26; assay: MIC, antifungal growth inhibition in microtiter plates (PDB); assay type: cell-based; conditions: Pe, 22°C, seven days, OD 600 nm, lowest concentration with no growth, given as interval of tested concentrations, three replicates, experiment repeated twice

Use these answered entries as a reference point.
query_smiles	experimental_value
CCCCCC(=O)NCCCC[C@H](NC(=O)[C@H](CCCCN)NC(=O)[C@H](CCCCN)NC(=O)[C@H](Cc1ccccc1)NC(=O)[C@H](CC(C)C)NC(=O)[C@H](CCCCN)NC(=O)[C@H](CCCCN)NC(C)=O)C(=O)N[C@@H](CC(C)C)C(=O)N[C@@H](CCCCN)C(=O)N[C@@H](Cc1ccc(O)cc1)C(=O)N[C@@H](CC(C)C)C(N)=O	>25 µM
CCCCCC(=O)NCCCC[C@H](NC(=O)[C@H](CC(C)C)NC(=O)[C@H](CCCCN)NC(=O)[C@H](CCCCN)NC(C)=O)C(=O)N[C@@H](CCCCN)C(=O)N[C@@H](CCCCN)C(=O)N[C@H](C(=O)N[C@@H](CC(C)C)C(=O)N[C@@H](CCCCN)C(=O)N[C@@H](Cc1ccc(O)cc1)C(=O)N[C@@H](CC(C)C)C(N)=O)[C@@H](C)CC	3.1 to 6.2 µM

# ---- query compound ----
Q: Consider the compound "CCCCCCCCCCCC(=O)NCCCC[C@H](NC(=O)[C@@H](NC(=O)[C@H](CCCCN)NC(=O)[C@H](CCCCN)NC(=O)[C@H](Cc1ccccc1)NC(=O)[C@H](CC(C)C)NC(=O)[C@H](CCCCN)NC(=O)[C@H](CCCCN)NC(C)=O)[C@@H](C)CC)C(=O)N[C@@H](CCCCN)C(=O)N[C@@H](Cc1ccc(O)cc1)C(=O)N[C@@H](CC(C)C)C(N)=O" . State its measured MIC.
Result: 12.5 to 25 µM

Ref: paper PMC6063448
